Reported IC50 values for a set of molecules
# assay_protocol: Inhibition of Beta-glucosidase activity.

Use these answered entries as a reference point.
molecule	IC50
O=C1c2ccc([N+](=O)[O-])cc2C(=O)N1c1ccccc1 [5-Nitro-2-phenyl-isoindole-1,3-dione]	> 500 µM
O=C1c2ccccc2C(=O)N1c1ccccc1 [2-Phenyl-isoindole-1,3-dione]	> 500 µM
Nc1ccc2c(c1)C(=O)N(c1ccccc1)C2=O [5-Amino-2-phenyl-isoindole-1,3-dione]	> 500 µM
O=C1c2ccccc2C(=O)N1CCc1ccccc1 [2-Phenethyl-isoindole-1,3-dione]	> 500 µM
O=C1c2ccc(O)cc2C(=O)N1c1ccccc1 [5-hydroxy-2-phenylisoindoline-1,3-dione]	> 500 µM

Complete the entry with IC50 for O=C1c2c(Cl)c(Cl)c(Cl)c(Cl)c2C(=O)N1Cc1ccccc1
> 500 µM

Complete the entry with IC50 for O=C1c2c(Cl)c(Cl)c(Cl)c(Cl)c2C(=O)N1CCCc1ccccc1
> 500 µM
